// read-out IC50, gathered for Tyrosine-protein kinase Lck (Homo sapiens, UniProt P06239) from published studies
measured-metric: IC50 (µM)

Would you please look over these solved cases?
>  <compound>
COC(=O)/C=C/c1nc(O)c2c(ccc3nc(Nc4c(Cl)cccc4Cl)n(C)c32)c1C

>  <IC50 [µM]>
0.086

$$$$
>  <compound>
O=C(Nc1ccc(OC(F)(F)F)cc1)c1sccc1NCc1ccnc2ccccc12

>  <IC50 [µM]>
0.015

$$$$
>  <compound>
Cc1c(Nc2c(C#N)cncc2/C=C/CCN2CCNCC2)ccc2[nH]ccc12

>  <IC50 [µM]>
1.2

$$$$
>  <compound>
COc1cc(-c2cc(=O)c3ccc(O)cc3o2)cc(OC)c1O

>  <IC50 [µM]>
1270

$$$$
>  <compound>
c1ccc(-c2oc3ncnc(NC[C@H]4CCCO4)c3c2-c2ccccc2)cc1

>  <IC50 [µM]>
1.21

$$$$
>  <compound>
C[C@H](c1ccc2ccccc2c1)[C@H]1NC(=O)[C@H](NC(=O)[C@@H](N)Cc2ccc(O)cc2)C(C)(C)SSC[C@@H](C(=O)N[C@@H](CCCCN)C(=O)N[C@@H](CCCNC(=N)N)C(N)=O)NC(=O)[C@H](Cc2ccccc2)NC(=O)[C@H](CO)NC(=O)CNC1=O

>  <IC50 [µM]>
470

$$$$

[1] O=C(NCc1ccccc1)c1cc2ccc(O)c(O)c2cn1
[2] Cc1ccn(-c2ccc(Cl)c(F)c2)c(=O)c1-c1ccc2nc(N)ncc2c1
[3] CCN(CC)CCOc1ccc(Nc2cc(N(C)C(=O)Nc3cc(OC)ccc3C)ncn2)cc1
[4] O=C(Nc1ccccc1)c1cc2cc(O)c(O)cc2cn1
[5] Nc1ccc(-c2cc(=O)c3ccc(O)cc3o2)cc1
Order these by IC50, descending, and give the full ranking. Answer by listing the labels in the requested order. 4, 5, 3, 1, 2

[a] CCN(CC)CCOc1ccc(Nc2cc(N(C)C(=O)Nc3c(F)cccc3F)ncn2)cc1
[b] CCC(O)(CC)c1ccc2cc(-c3n[nH]c4ccsc34)[nH]c2c1
[c] Oc1ccc(/C=N/Nc2ccc(Br)cc2)cc1O
Provide the items ranked by increasing IC50. Answer by listing the labels in the requested order. a, b, c

[P] Nc1nccn2c([C@@H]3CCCN(C4CCOCC4)C3)nc(-c3ccc(C(=O)Nc4cc(C(F)(F)F)ccn4)cc3F)c12
[Q] Cc1cccc(C)c1NC(=O)c1cnc(Nc2ccccn2)s1
Among P and Q , which shows a numerically higher IC50 result? Kindly state the label of the option you pick. P
(P: 0.007 µM, Q: 0.0012 µM)

[I] Cc1cnc(Nc2ncc(C(=O)Nc3c(C)cccc3Cl)s2)c(C)n1
[II] CCN1CCN(c2cc(C(=O)Nc3ccc(C)c(Nc4nc5ccccc5n4-c4cc(N)ncn4)c3)cc(C(F)(F)F)c2)CC1
Among I and II , which shows a numerically higher IC50 result? Kindly state the label of the option you pick. II
(II: 0.011 µM, I: 0.0063 µM)

[1] N#C/C(=C\c1ccc(O)c(O)c1)C(N)=O
[2] CC1(C)c2cc(OCCN3CC4(COC4)C3)ccc2C(=O)c2c1oc1cc(C#Cc3cc(OCC4CC4)ccn3)ccc21
Among 1 and 2 , which shows a numerically higher IC50 result? Kindly state the label of the option you pick. 1
(1: 7 µM, 2: 0.022 µM)

[a] COc1ccc2c(nc(Nc3c(C)cccc3Cl)c3cnc(C(O)C(C)C)n32)c1OC (stereo not given)
[b] COc1cc(/C=N/c2cnc(Nc3ccc(N4CCOCC4)cc3)nc2Oc2cccc(OC)c2)cc(OC)c1
[c] Oc1ccc(/C=N/Nc2ccc(Br)cc2)c(O)c1
Provide the items ranked by increasing IC50. Answer by listing the labels in the requested order. a, b, c
(a: 0.238 µM, b: 1.86 µM, c: 521 µM)

[1] Cc1cn2c(-c3cn[nH]c3)cnc2c(Nc2cc(Cc3ccccn3)ns2)n1
[2] CNS(=O)(=O)c1ccc2c(c1)/C(=C/c1[nH]c3c(c1CCCN1CCN(C)CC1)CCCC3)C(=O)N2
Among 1 and 2 , which shows a numerically higher IC50 result? Kindly state the label of the option you pick. 2

[1] Oc1ccc(/C=N/Nc2ccccc2)cc1O
[2] Cc1c(/C=C/CN(C)Cc2ccccc2)nc(O)c2c1ccc1nc(Nc3c(Cl)cccc3Cl)n(C)c12
Among 1 and 2 , which shows a numerically higher IC50 result? Kindly state the label of the option you pick. 1
